System: GRK7;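 also: KINOMEscan scanMAX binding as percent activity remaining versus control; lower means stronger binding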
Details: Compound Concentration (nM):1000
OBSERVABLE: Percent Control (%)
Report the value in % with no unit label.

Study these solved cases before continuing.
In [3]: df
Out[3]:
                                   molecule  measured_number
0  CCS(=O)(=O)c1ccc(OC)c(Nc2ncc(-c3cccc(OC)c3)o2)c1 [GW580509X]              100
1  COC(=O)Nc1nc2ccc(Oc3ccc(NC(=O)Nc4cc(C(F)(F)F)ccc4F)cc3)cc2s1.Cl [GW693917A]               84
2  O=C1Nc2ccc(C(=O)c3ccco3)cc2C1=Cc1cc(Cl)c(O)c(Cl)c1 [GW406108X]               65
3  Cl.O=C(Nc1ccc(Oc2ccc3[nH]c(NC(=O)c4ccccc4)nc3c2)cc1)Nc1cc(C(F)(F)F)ccc1F [GW709042A]              100
4  COc1ccc(COc2ccc(Cc3cnc(N)nc3N)cc2OC)cc1 [GW632580X]              100
5  COc1cc(C=NNc2ncnc3c2cnn3-c2ccccc2)ccc1O [GW513184X]               84
6  COc1cc(N2CCN(C(C)C)CC2)ccc1Nc1nc(Nc2ccc(F)cc2C(=O)NC[C@@H](O)CO)c2cc[nH]c2n1 [GSK1392956A]               93
7  C/C(Nc1ccc(S(N)(=O)=O)cc1)=C1/C(=O)Nc2ccccc21 [GW335962X]               97

Continue with the next molecule.
What value of measured Percent Control is listed for CN1CCN(C(=O)c2ccc(NC(=O)Nc3ccc(N(C)c4ccnc(Nc5ccc(CS(C)(=O)=O)cc5)n4)cc3)cc2)CC1.Cl [GW830263A] ?
100
